Data provenance: paper PMC4389225

assay: Dog plasma PK, IV and oral; type: in vivo; details: male, Beagle, dog, plasma, iv, 2.1 mg/kg, plasma, IV 2.1 mg kg-1, Mean; read-out: CL
MEASUREMENT_NAME: clearance (mL/min/kg)
One number for each entry, in mL/min/kg.

IN: Reported clearance for `Cc1nc(Nc2ncc(N3CCN(C)[C@H](C)C3)c(Nc3cc(C)n(C)n3)n2)cc(C2CC2)c1F` : what is it?
OUT: 24.4

----------
Consider the following compounds; for each one, report its fraction unbound.
test: Plasma protein binding, human; details: human, plasma
Answers are plain numbers.

SAMPLE_SMILES	RECORDED_NUMBER
Cc1nc(Nc2ncc(N3CCN(C)[C@H](C)C3)c(Nc3cc(C)n(C)n3)n2)cc(C2CC2)c1F	0.025

Now look at this one.
IN: Reported fraction unbound for `Cc1cc(Nc2ncc(N3CCN(C)CC3)c(N3CCCC3)n2)ccn1` : what is it?
OUT: 0.402

----------
experiment: Rat blood PK, IV and oral; type: in vivo; conditions: Wistar, rat, whole blood, po, 10 mg/kg, Oral 10 mg kg-1, Rat 3
MEASUREMENT_NAME: AUC(0-t) (µM·h)
One number for each entry, in µM·h.

IN: Reported AUC(0-t) for `Cc1nc(Nc2ncc(N3CCN(C)[C@H](C)C3)c(Nc3cc(C)n(C)n3)n2)cc(C2CC2)c1F` : what is it?
OUT: 35.1

----------
assay: Dog plasma PK, IV and oral; format: in vivo; conditions: male, Beagle, dog, plasma, po, 5.1 mg/kg, Oral 5.1 mg kg-1, Mean
MEASUREMENT_NAME: AUC(0-inf) (µM·h)
Give bare numbers, in µM·h.

IN: Reported AUC(0-inf) for `Cc1nc(Nc2ncc(N3CCN(C)[C@H](C)C3)c(Nc3cc(C)n(C)n3)n2)cc(C2CC2)c1F` : what is it?
OUT: 7.08

----------
assay: Rat blood PK, IV and oral; format: in vivo; conditions: Wistar, rat, whole blood, iv, 2 mg/kg, IV 2 mg kg-1, Mean
MEASUREMENT_NAME: MRT (h)
One number for each entry, in h.

IN: Reported MRT for `Cc1nc(Nc2ncc(N3CCN(C)[C@H](C)C3)c(Nc3cc(C)n(C)n3)n2)cc(C2CC2)c1F` : what is it?
OUT: 15.7

----------
assay: Rat blood PK, IV and oral; type: in vivo; settings: Wistar, whole blood; Oral 10 mg kg-1, Rat 1
MEASUREMENT_NAME: Tmax (h)
One number for each entry, in h.

IN: Reported Tmax for Cc1nc(Nc2ncc(N3CCN(C)[C@H](C)C3)c(Nc3cc(C)n(C)n3)n2)cc(C2CC2)c1F [compound 12] : what is it?
OUT: 4

----------
test: Dog plasma PK, IV and oral; type: in vivo; conditions: male, Beagle, dog, plasma, iv, 2.1 mg/kg, plasma, IV 2.1 mg kg-1, Dog 2; read-out: Vss
MEASUREMENT_NAME: Vd
Could you write the number and then its unit?

IN: Reported Vd for `Cc1nc(Nc2ncc(N3CCN(C)[C@H](C)C3)c(Nc3cc(C)n(C)n3)n2)cc(C2CC2)c1F` : what is it?
OUT: 20.4 L/kg

----------
system: PfATP4 Cpd 2; test: [3H]-hypoxanthine incorporation assay, PfATP4 Cpd 2 resistant; assay type: cell-based; conditions: Plasmodium falciparum
MEASUREMENT_NAME: IC50 (nM)
Give bare numbers, in nM.

COMPOUND	IC50 [nM]
Cc1nc(Nc2ncc(N3CCNC(C)C3)c(Nc3cc(C)n(C)n3)n2)cc(C2CC2)c1F.Cl.Cl (centres unmarked) [compound 9]	11

Now look at this one.
IN: Reported IC50 for Cc1nc(Nc2ncc(N3CCN(C)[C@H](C)C3)c(Nc3cc(C)n(C)n3)n2)cc(C2CC2)c1F [compound 12] : what is it?
OUT: 8.1
